Tested on: E. coli efflux parent
experimental-protocol: MIC broth microdilution, E. coli efflux parent strain
Type: cell-based
assay-setup: Table 2; geometric mean
property-label: Geometric Mean MIC values, E. coli efflux parent

>  <molecule>
NCC1OC(OC2C(CO)OC(OC3C(O)C(N)CC(N)C3OC3OC(C4(N)CC4)CCC3N)C2O)C(N)C(O)C1O (stereo not drawn) [drawing 859]

>  <test-system>
E. coli efflux parent

>  <result>
1 µg/mL

$$$$
>  <molecule>
CC(N)C1CCC(N)C(OC2C(N)CC(N)C(O)C2OC2OC(CO)C(OC3OC(CN)C(O)C(O)C3N)C2O)O1 (stereo not drawn) [drawing 858]

>  <test-system>
E. coli efflux parent

>  <result>
1 µg/mL

$$$$
>  <molecule>
NCC1OC(OC2C(CO)OC(OC3C(O)C(N)CC(N)C3OC3OC(CN)C(O)C(F)C3N)C2O)C(N)C(O)C1O (stereo not drawn) [drawing 869]

>  <test-system>
E. coli efflux parent

>  <result>
1 µg/mL

$$$$
